The following binders are shown together with reported IC50, endogenous IL-6 induced synovial fibroblast VEGF release assay values.
Molecular target: Mature human IL-6 (human, UniProt P05231 30-212)
Sequence (P05231 30-212): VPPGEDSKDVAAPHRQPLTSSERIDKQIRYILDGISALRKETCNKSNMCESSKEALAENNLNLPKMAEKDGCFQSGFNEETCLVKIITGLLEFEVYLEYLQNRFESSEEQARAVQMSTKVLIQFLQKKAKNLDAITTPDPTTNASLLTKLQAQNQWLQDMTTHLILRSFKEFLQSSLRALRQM
Test: cell-based or functional assay
Provide only the numeric value, understood in pM.

Antibody 10 (GL) IgG (antibody, V domains shown) VH: EVQLVESGGGLVQPGGSLRLSCAASGFTISSNYMIWVRQAPGKGLEWVSDLYYYAGDTYYADSVKGRFTMSRDISKNTVYLQMNSLRAEDTAVYYCARWEEEGRGYIDVWGRGTLVTVSS VL: DIQMTQSPSTLSASVGDRVTITCRASQGISSWLAWYQQKPGKAPKVLIYKASTLESGVPSRFSGSGSGTEFTLTISSLQPDDFATYYCQQSWLGGSFGQGTKLEIKR: 550

Fill in the blank: the reported IC50, endogenous IL-6 induced synovial fibroblast VEGF release assay of Antibody 18 (GL) IgG (antibody, V domains shown, Germlined IgG1/kappa; also called Ab 18) VH: EVQLVESGGGLVQPGGSLRLSCAASGFTISSNYMIWVRQAPGKGLEWVSDLYYYAGDTYYADSVKGRFTMSRDISKNTVYLQMNSLRAEDTAVYYCARWADDHPPWIDLWGRGTLVTVSS VL: DIQMTQSPSTLSASVGDRVTITCRASQGISSWLAWYQQKPGKAPKVLIYKASTLESGVPSRFSGSGSGTEFTLTISSLQPDDFATYYCQQSWLGGSFGQGTKLEIKR is ____.
930

Fill in the blank: the reported IC50, endogenous IL-6 induced synovial fibroblast VEGF release assay of Antibody 4 IgG (antibody, V domains shown, Non-germlined; IgG1 with human heavy chain and kappa constant domains; also called Ab 4) VH: EVQLVQSGGGLIQPGGSLRLSCAASGFTVSSNYMTWVRQAPGKGLEWVSDLYYYAGDTYYADSVKGRFTMSRDISKNTVYLQMNSLRAEDTGVYYCARWADGHYYYADVWGRGTLVSVSS VL: DIVMTQSPSTLSASVGDRVTITCRASQGISSWLAWYQQKPGRAPKVLIYKASTLESGVPSRFSGSGSGTDFTLTISSLQPEDFASYYCQQSYSAPWTFGQGTKLELKR is ____.
520
